System: 379773-124-R-J2-PDC complex spheroids, viability % test/control;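 also: compound exposure lasted seven days before the viability readout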
Assay: Anticancer human tumor 379773-124-R-J2-PDC patient-derived endometrial carcinoma cell line growth inhibition [CLK]
Conditions: second compound 1 µM; first compound 10 µM; hits give low values
Field: label. Allowed values: Met (viability, T/C < 0.2%) or Not met (viability, T/C >= 0.2%).

molecule	cat
O=c1[nH]cc(F)c(=O)[nH]1 + CN1CCN(c2cc(C(=O)Nc3cc4cc(-c5cnn(C)c5)ccc4cn3)ccn2)CC1	Met
CC(CO)NC(=O)c1cc(-c2ccc(Cl)cc2)nn(-c2cnn(C)c2)c1=O (configuration not stated) + CN1CCN(c2cc(C(=O)Nc3cc4cc(-c5cnn(C)c5)ccc4cn3)ccn2)CC1	Not met
COc1cccc2c1C(=O)c1c(O)c3c(c(O)c1C2=O)CC(O)(C(=O)CO)CC3OC1CC(N)C(O)C(C)O1 (configuration not stated) + CN1CCN(c2cc(C(=O)Nc3cc4cc(-c5cnn(C)c5)ccc4cn3)ccn2)CC1	Met
CC(=O)O[C@H]1C(=O)[C@@]2(C)[C@H]([C@H](OC(=O)c3ccccc3)[C@]3(O)C[C@H](OC(=O)[C@H](O)[C@@H](NC(=O)c4ccccc4)c4ccccc4)C(C)=C1C3(C)C)[C@]1(OC(C)=O)CO[C@@H]1C[C@@H]2O + CNC(=O)c1ccc(Nc2nc(OC3CCCC3)c3c(-c4ccc5nc(C)oc5c4)c[nH]c3n2)c(OC)c1	Not met
CC(Nc1ccc2c(c1)OCCn1cc(N3C(=O)OCC3C(F)F)nc1-2)C(N)=O (configuration not stated) + CNC(=O)c1ccc(Nc2nc(OC3CCCC3)c3c(-c4ccc5nc(C)oc5c4)c[nH]c3n2)c(OC)c1	Not met
CC1COCCN1c1cc(C2(S(C)(=N)=O)CC2)nc(-c2ccnc3[nH]ccc23)n1 (configuration not stated) + CN1CCN(c2cc(C(=O)Nc3cc4cc(-c5cnn(C)c5)ccc4cn3)ccn2)CC1	Met
COC1C=CCC(C)C(C)S(=O)(=O)NC(=O)c2ccc3c(c2)N(CC2CCC21)CC1(CCCc2cc(Cl)ccc21)CO3 (configuration not stated) + CN1CCN(c2cc(C(=O)Nc3cc4cc(-c5cnn(C)c5)ccc4cn3)ccn2)CC1	Met
Nc1ccn(C2OC(CO)C(O)C2(F)F)c(=O)n1 (configuration not stated) + CNC(=O)c1ccc(Nc2nc(OC3CCCC3)c3c(-c4ccc5nc(C)oc5c4)c[nH]c3n2)c(OC)c1	Not met
C=CC(=O)N1CCN(c2nc(=O)n(-c3c(C)ccnc3C(C)C)c3nc(-c4c(O)cccc4F)c(F)cc23)C(C)C1 (configuration not stated) + CN1CCN(c2cc(C(=O)Nc3cc4cc(-c5cnn(C)c5)ccc4cn3)ccn2)CC1	Met
CC(Nc1ccc2c(c1)OCCn1cc(N3C(=O)OCC3C(F)F)nc1-2)C(N)=O (configuration not stated) + CN1CCN(c2cc(C(=O)Nc3cc4cc(-c5cnn(C)c5)ccc4cn3)ccn2)CC1	Met
COC1C=CCC(C)C(C)S(=O)(=O)NC(=O)c2ccc3c(c2)N(CC2CCC21)CC1(CCCc2cc(Cl)ccc21)CO3 (configuration not stated) + CNC(=O)c1ccc(Nc2nc(OC3CCCC3)c3c(-c4ccc5nc(C)oc5c4)c[nH]c3n2)c(OC)c1	Not met
C=CC(=O)N1CCN(c2nc(=O)n(-c3c(C)ccnc3C(C)C)c3nc(-c4c(O)cccc4F)c(F)cc23)C(C)C1 (configuration not stated) + CNC(=O)c1ccc(Nc2nc(OC3CCCC3)c3c(-c4ccc5nc(C)oc5c4)c[nH]c3n2)c(OC)c1	Not met
